test system: C2A; test: qHTS profiling for inhibitors of Plasmodium falciparum proliferation (AID 504749); further: nearly all actives have a fitted effect of over 60% in size; further: potency means the concentration at half of the fitted maximal effect; details: P. falciparum in erythrocytes, SYBR Green DNA, 72 h; series mostly up to 28.7 µM
Records with an inconclusive call do not appear. Calls of active or inactive are those of the source. The call rests on the fitted dose curve; in most records, active means well fitted inhibition curve with a large enough effect; inconclusive means small, poorly fitted or top-dose-only effect; inactive means flat fitted curve, though single readings scatter.
Measure: Potency

OC(Cn1cncn1)(Cn1cncn1)c1ccc(F)cc1F
inactive
O=S(=O)(O)CCS
inactive
O=c1cc(O)c(Cl)c[nH]1
inactive
CC[C@H](C)C(=O)O[C@H]1C[C@@H](C)C=C2C=C[C@H](C)[C@H](CC[C@@H]3C[C@@H](O)CC(=O)O3)[C@H]21
inactive
C[C@]12C=CC(=O)C=C1CC[C@@H]1[C@@H]2C(=O)C[C@@]2(C)[C@H]1CC[C@]2(O)C(=O)CO
inactive
CC[C@H](NC(C)C)[C@H](O)c1ccc(O)c2[nH]c(=O)ccc12
inactive
CN(Cc1cc(Br)cc(Br)c1N)C1CCCCC1
inactive
CCC(C)(C)c1ccc(CC(C)CN2C[C@@H](C)O[C@@H](C)C2)cc1 (stereo partly specified)
inactive
COc1cc(NCc2ccc3nc(N)nc(N)c3c2C)cc(OC)c1OC
0.631 µM (active)
CCn1cc(C(=O)O)c(=O)c2cc(F)c(N3CCNCC3)nc21
inactive
COc1cccc(N(C)C(=S)Oc2ccc3c(c2)CCCC3)n1
inactive
O=C(O)c1cc(=O)[nH]c(=O)[nH]1
inactive
COc1cc(NS(=O)(=O)c2ccc(N)cc2)nc(OC)n1
inactive
Cc1cccc(N(C)C(=S)Oc2ccc3ccccc3c2)c1
inactive
CC(=O)Oc1ccccc1C(=O)Nc1ncc([N+](=O)[O-])s1
inactive
NC(=O)c1cccnc1
inactive
CNC1CCCN(c2c(F)cc3c(=O)c(C(=O)O)cn(C4CC4)c3c2OC)C1 (stereo unspecified)
inactive
CC(C)NCC(O)c1ccc(NS(C)(=O)=O)cc1 (stereo unspecified)
inactive
COc1c(N2CCNC(C)C2)c(F)cc2c(=O)c(C(=O)O)cn(C3CC3)c12 (stereo unspecified)
inactive
NC(=O)N1c2ccccc2CC(=O)c2ccccc21
inactive
O=NN(CCCl)C(=O)NC1CCCCC1
inactive
CCCN[C@H]1CCc2nc(N)sc2C1
inactive
NCCCC(O)(P(=O)(O)O)P(=O)(O)O
inactive
Cc1oc(=O)oc1CN1CCN(c2cc3c(cc2F)c(=O)c(C(=O)O)c2n3C(C)S2)CC1 (stereo unspecified)
10 µM (active)
CCCc1cc(C(N)=S)ccn1
inactive
COC(=O)Nc1nc2ccc(Sc3ccccc3)cc2[nH]1
inactive
CC(C)(Sc1cc(C(C)(C)C)c(O)c(C(C)(C)C)c1)Sc1cc(C(C)(C)C)c(O)c(C(C)(C)C)c1
inactive
CC1=NN(c2ccccc2)C(=O)C1
inactive
Nc1nc(N)c2nc(CNc3ccc(C(=O)NC(CCC(=O)O)C(=O)O)cc3)cnc2n1 (stereo unspecified)
inactive
CNS(=O)(=O)Cc1ccc2[nH]cc(CCN(C)C)c2c1
inactive
COc1ccc2cc3[n+](cc2c1OC)CCc1cc2c(cc1-3)OCO2
1 µM (active)
CCCCCCNC(=O)n1cc(F)c(=O)[nH]c1=O
12.6 µM (active)
CCc1c2c(nc3ccc(OC(=O)N4CCC(N5CCCCC5)CC4)cc13)-c1cc3c(c(=O)n1C2)COC(=O)[C@]3(O)CC
inactive
CCn1cc(C(=O)O)c(=O)c2cc(F)c(N3CCNCC3)cc21
inactive
CCc1cc(C(N)=S)ccn1
inactive
NC(N)=NC(N)=NCCc1ccccc1
inactive
CN(C)CCc1c[nH]c2ccc(CS(=O)(=O)N3CCCC3)cc12
inactive
Cc1cccc(Nc2ccncc2S(=O)(=O)NC(=O)NC(C)C)c1
inactive
Nc1nc(N)nc(-c2cc(Cl)ccc2Cl)n1
inactive
Cc1noc(NS(=O)(=O)c2ccc(N)cc2)c1C
inactive
CN(CCOc1ccc(CC2SC(=O)NC2=O)cc1)c1ccccn1 (stereo unspecified)
inactive
C1CCC(C(CC2CCCCN2)C2CCCCC2)CC1 (stereo unspecified)
11.2 µM (active)
CCOc1cc(N)c(Cl)cc1C(=O)NCC1CN(Cc2ccc(F)cc2)CCO1 (stereo unspecified)
11.2 µM (active)
CC(C)(C#N)c1cc(Cn2cncn2)cc(C(C)(C)C#N)c1
inactive
N=C(N)c1ccc(OCCCCCOc2ccc(C(=N)N)cc2)cc1
1.26 µM (active)
CN1CCN(c2c(F)cc3c(=O)c(C(=O)O)cn(CCF)c3c2F)CC1
inactive

----------
Tested on: Zika virus NS2B-NS3 protease
Test: Primary screen GU AMC qHTS for Zika virus inhibitors (AID 1347154); further: nearly all actives have a fitted effect of over 70% in size
Details: Zika NS2B-NS3 unlinked protease, AMC fluorogenic substrate; series mostly up to 54.1 µM
Source text: Avindra Nath, Ph.D., National Institute of Neurological Disorders and Stroke (NINDS), Bethesda, MD Radhakrishnan Padmanabhan, Ph.D., Georgetown University (GU), Washington D.C. Zika Virus causes congenital defects, including microcephaly and is associated with Guillain-Barre syndrome, eningoencephalitis and myelitis in infected adult. […]
Results filed as inconclusive are left out. The source made the active and inactive calls. Calls follow the shape of the dose curve; as a rule, active = well fitted inhibition curve with a large enough effect; inconclusive = small, poorly fitted or top-dose-only effect; inactive = flat fitted curve, though single readings scatter.
Labels: 1 = active, 0 = inactive

CNC(=O)c1cc(Oc2ccc(NC(=O)Nc3ccc(Cl)c(C(F)(F)F)c3)cc2)ccn1
0
CS(=O)(=O)c1ccc([C@@H](O)[C@@H](CO)NC(=O)C(Cl)Cl)cc1
0
CCN[C@H]1C[C@H](C)S(=O)(=O)c2sc(S(N)(=O)=O)cc21
0
CC(=O)CC(c1ccccc1)c1c(O)c2ccccc2oc1=O (stereo not given)
0
CC(C)(C)C(=O)OCOP(=O)(COCCn1cnc2c(N)ncnc21)OCOC(=O)C(C)(C)C
0
COc1nc(N)nc2c1ncn2[C@@H]1O[C@H](CO)[C@@H](O)[C@@H]1O
0
OC(Cn1cncn1)(Cn1cncn1)c1ccc(F)cc1F
0
O[C@@H](CNC[C@H](O)[C@H]1CCc2cc(F)ccc2O1)[C@@H]1CCc2cc(F)ccc2O1
0
COc1ccccc1OCC(O)COC(N)=O (stereo not given)
0
N[C@@H](Cc1ccc(O)c(O)c1)C(=O)O
1
O=NN(CCCl)C(=O)NC1CCCCC1
0
COc1ncnc(NS(=O)(=O)c2ccc(N)cc2)c1OC
0
COc1cc2nc(N3CCCN(C)CC3)nc(NC3CCN(Cc4ccccc4)CC3)c2cc1OC
1
Nc1[nH]c(=O)ncc1F
0
Cc1ccc(S(=O)(=O)N[C@@H](Cc2ccccc2)C(=O)CCl)cc1
0
C#CCN[C@@H]1CCc2ccccc21
0
COc1ccc2cc3[n+](cc2c1OC)CCc1cc2c(cc1-3)OCO2
0
CC1CC2C3CCC4=CC(=O)C=C[C@]4(C)[C@@]3(F)[C@@H](O)C[C@]2(C)[C@@]1(O)C(=O)CO (stereo not given in full)
0
O=S(=O)(O)CCS
0
NC(=O)c1ccc2[nH]ccc2c1
0
Cc1nnc(NS(=O)(=O)c2ccc(N)cc2)s1
0
CCN(CC)CC#CCOC(=O)C(O)(c1ccccc1)C1CCCCC1 (stereo not given)
0
CCOc1cc(N)c(Cl)cc1C(=O)NCC1CN(Cc2ccc(F)cc2)CCO1 (stereo not given)
0
CCCCOc1ccc(CC(=O)NO)cc1
0
CO[C@@]12[C@H](COC(N)=O)C3=C(C(=O)C(C)=C(N)C3=O)N1C[C@@H]1N[C@@H]12
0
CN(Cc1cc(Br)cc(Br)c1N)C1CCCCC1
0
CCn1cc(C(=O)O)c(=O)c2cc(F)c(N3CCN(C)CC3)cc21
0
CCOCC(O)COc1ccc(NC(=O)CC[S+](C)C)cc1 (stereo not given)
0
C[C@]12C=CC(=O)C=C1CC[C@@H]1[C@@H]2C(=O)C[C@@]2(C)[C@H]1CC[C@]2(O)C(=O)CO
0
C[C@@H]1C[C@H]2[C@@H]3CCC4=CC(=O)C=C[C@]4(C)[C@@]3(Cl)[C@@H](O)C[C@]2(C)[C@@]1(OC(=O)c1ccco1)C(=O)CCl
0
C[C@@H](NCCCc1cccc(C(F)(F)F)c1)c1cccc2ccccc12
0
Nc1nc(N)c2nc(CNc3ccc(C(=O)NC(CCC(=O)O)C(=O)O)cc3)cnc2n1 (stereo not given)
1
C[C@@H]1CN(c2c(F)c(N)c3c(=O)c(C(=O)O)cn(C4CC4)c3c2F)C[C@H](C)N1
0
Nc1nc(N)nc(-c2cc(Cl)ccc2Cl)n1
0
CCc1cc(C(N)=S)ccn1
0
NCCCC(O)(P(=O)(O)O)P(=O)(O)O
0
Nc1nc(=S)c2[nH]cnc2[nH]1
0
COc1cc2ncnc(Nc3cccc(Cl)c3)c2cc1OC
0
CC[C@H](NC(C)C)[C@H](O)c1ccc(O)c2[nH]c(=O)ccc12
0
CCC(C)(C)c1ccc(CC(C)CN2C[C@@H](C)O[C@@H](C)C2)cc1 (stereo not given in full)
0
CCOC(=O)[C@H](CCc1ccccc1)N[C@H]1CS[C@H](c2cccs2)CN(CC(=O)O)C1=O
0
CC(C)NCC(O)c1ccc(NS(C)(=O)=O)cc1 (stereo not given)
0
COC(=O)Nc1nc2ccc(C(=O)c3ccccc3)cc2[nH]1
0
NC(=O)c1cccc(N)c1
0
CCc1c2c(nc3ccc(OC(=O)N4CCC(N5CCCCC5)CC4)cc13)-c1cc3c(c(=O)n1C2)COC(=O)[C@]3(O)CC
1
